Tested on: Escherichia coli TOP10;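 further: peptides expressed intracellularly from a pBAD plasmid library in pooled LB shake-flask culture, induced with 0.3% L-arabinose, DNA abundance read by NGS, three biological replicates, DESeq2 with apeglm shrinkage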
PROCEDURE_DETAILS: shrunken log2 fold change of peptide-encoding DNA abundance (4.5 h post-induction vs induction); higher = less antimicrobial activity (less host growth inhibition)
MEASUREMENT_SETUP: time post-induction: 4.5 h; library: site-saturation at positions 5, 18, 19, 20
So basically: shrunken log2 fold change at 0.06 or higher? That is Criterion met. Lower than 0.06? That is Criterion not met.

In: Check if shrunken log2 fold change >= 0.06 (inclusive). Item: RRIRWRPPRLPRPRPRPFKDPRP
Out: Criterion not met

In: Quick check: does RRIRVRPPRLPRPRPRPPSMPRP have shrunken log2 fold change greater than or equal to 0.06?
Out: Criterion not met

In: Is the recorded value of shrunken log2 fold change equal to or greater than 0.06 for this sequence? RRIRGRPPRLPRPRPRPIHKPRP
Out: Criterion not met

In: Textbook exercise: given the entry RRIRLRPPRLPRPRPRPMAEPRP , state whether its shrunken log2 fold change is greater than or equal to 0.06.
Out: Criterion met

In: Record RRIRPRPPRLPRPRPRPLLAPRP ; criterion: shrunken log2 fold change no lower than 0.06. Met?
Out: Criterion met

In: Is shrunken log2 fold change at least 0.06? Consider RRIRQRPPRLPRPRPRPPWDPRP
Out: Criterion met

In: Determine whether measured shrunken log2 fold change meets or exceeds 0.06 for RRIRIRPPRLPRPRPRPDPPPRP
Out: Criterion met

In: Is shrunken log2 fold change for RRIRSRPPRLPRPRPRPWFNPRP at or above 0.06?
Out: Criterion not met

In: Determine whether measured shrunken log2 fold change meets or exceeds 0.06 for RRIRVRPPRLPRPRPRPLPHPRP
Out: Criterion met

In: Decide: is the reported value of shrunken log2 fold change for RRIRKRPPRLPRPRPRPHRTPRP equal to or greater than 0.06?
Out: Criterion not met

In: Does the reported shrunken log2 fold change for RRIRGRPPRLPRPRPRPIQQPRP fall at or above the 0.06 mark?
Out: Criterion not met

In: In plain terms: is recorded shrunken log2 fold change at least 0.06 for RRIRTRPPRLPRPRPRPLQEPRP ?
Out: Criterion met

In: API: above_or_equal(metric=shrunken log2 fold change, cutoff=0.06) for item RRIRMRPPRLPRPRPRPLCCPRP
Out: Criterion met

In: Identify whether the reported shrunken log2 fold change of the following sequence is 0.06 or greater: RRIRCRPPRLPRPRPRPCHSPRP
Out: Criterion not met

In: Textbook exercise: given the entry RRIRRRPPRLPRPRPRPLGFPRP , state whether its shrunken log2 fold change is greater than or equal to 0.06.
Out: Criterion met

In: Hi, just wondering whether RRIRDRPPRLPRPRPRPDENPRP shows shrunken log2 fold change of 0.06 or higher.
Out: Criterion met

In: Has RRIRNRPPRLPRPRPRPFYIPRP a recorded shrunken log2 fold change greater than or equal to 0.06?
Out: Criterion not met

In: Record RRIRKRPPRLPRPRPRPNHSPRP ; criterion: shrunken log2 fold change no lower than 0.06. Met?
Out: Criterion not met

In: API: above_or_equal(metric=shrunken log2 fold change, cutoff=0.06) for item RRIRNRPPRLPRPRPRPAQMPRP
Out: Criterion met

In: For this sequence, is measured shrunken log2 fold change 0.06 or higher? RRIRKRPPRLPRPRPRPWWFPRP
Out: Criterion not met

In: Does the sequence RRIRQRPPRLPRPRPRPKNRPRP have recorded shrunken log2 fold change that is 0.06 or more?
Out: Criterion met

In: Determine whether measured shrunken log2 fold change meets or exceeds 0.06 for RRIRHRPPRLPRPRPRPLKCPRP
Out: Criterion not met

In: Reported shrunken log2 fold change at or above 0.06? RRIRFRPPRLPRPRPRPEDRPRP
Out: Criterion not met

In: Does RRIRERPPRLPRPRPRPAFYPRP have a reported shrunken log2 fold change of at least 0.06?
Out: Criterion not met

In: Hi, just wondering whether RRIRARPPRLPRPRPRPDMGPRP shows shrunken log2 fold change of 0.06 or higher.
Out: Criterion not met

In: Item RRIRERPPRLPRPRPRPNHTPRP with shrunken log2 fold change of 0.06 or above?
Out: Criterion not met

In: Is reported shrunken log2 fold change greater than or equal to 0.06 here: RRIRSRPPRLPRPRPRPTFDPRP
Out: Criterion not met

In: State whether the measured shrunken log2 fold change reaches 0.06, counting equality as reaching it, for RRIRFRPPRLPRPRPRPMQSPRP
Out: Criterion not met

In: Has RRIRSRPPRLPRPRPRPVMQPRP a recorded shrunken log2 fold change greater than or equal to 0.06?
Out: Criterion met

In: Has RRIRHRPPRLPRPRPRPKAHPRP a recorded shrunken log2 fold change greater than or equal to 0.06?
Out: Criterion not met

In: Hi team, for RRIRGRPPRLPRPRPRPNSLPRP , is the recorded shrunken log2 fold change at or above 0.06?
Out: Criterion met

In: Does the sequence RRIRKRPPRLPRPRPRPRMKPRP have recorded shrunken log2 fold change that is 0.06 or more?
Out: Criterion met

In: // inclusive: shrunken log2 fold change at least 0.06? input: RRIRKRPPRLPRPRPRPKVEPRP
Out: Criterion not met

In: Item RRIRHRPPRLPRPRPRPKGGPRP with shrunken log2 fold change of 0.06 or above?
Out: Criterion not met

In: Record RRIRIRPPRLPRPRPRPHSAPRP ; criterion: shrunken log2 fold change no lower than 0.06. Met?
Out: Criterion not met

In: Tell me whether shrunken log2 fold change is at least 0.06 here: RRIRSRPPRLPRPRPRPGVSPRP
Out: Criterion met

In: In plain terms: is recorded shrunken log2 fold change at least 0.06 for RRIRVRPPRLPRPRPRPVIWPRP ?
Out: Criterion met

In: I'd appreciate it if you could say whether RRIRDRPPRLPRPRPRPSIKPRP has shrunken log2 fold change at least equal to 0.06.
Out: Criterion not met

In: API: above_or_equal(metric=shrunken log2 fold change, cutoff=0.06) for item RRIRPRPPRLPRPRPRPHCSPRP
Out: Criterion not met

In: Check if shrunken log2 fold change >= 0.06 (inclusive). Item: RRIRSRPPRLPRPRPRPAVCPRP
Out: Criterion met

In: Can RRIRARPPRLPRPRPRPLKCPRP be said to have shrunken log2 fold change at or above 0.06?
Out: Criterion met

In: Confirm if shrunken log2 fold change reported for the sequence RRIRCRPPRLPRPRPRPWFIPRP is 0.06 or above.
Out: Criterion not met

In: Answer whether shrunken log2 fold change of RRIRARPPRLPRPRPRPASHPRP is greater than or equal to 0.06.
Out: Criterion met

In: Check this sequence for shrunken log2 fold change at or above 0.06: RRIRCRPPRLPRPRPRPHMIPRP
Out: Criterion not met

In: Quick check: does RRIRWRPPRLPRPRPRPEYAPRP have shrunken log2 fold change greater than or equal to 0.06?
Out: Criterion met

In: Reported shrunken log2 fold change reaches at least 0.06 for RRIRSRPPRLPRPRPRPSIDPRP ?
Out: Criterion not met

In: Form field: shrunken log2 fold change at least 0.06? Entry: RRIRRRPPRLPRPRPRPWWMPRP
Out: Criterion met

In: Determine whether this sequence has shrunken log2 fold change no lower than 0.06: RRIRSRPPRLPRPRPRPGVKPRP
Out: Criterion met

In: Is reported shrunken log2 fold change greater than or equal to 0.06 here: RRIRRRPPRLPRPRPRPCWNPRP
Out: Criterion not met

In: Has RRIRSRPPRLPRPRPRPSLSPRP a recorded shrunken log2 fold change greater than or equal to 0.06?
Out: Criterion not met

In: Determine whether this sequence has shrunken log2 fold change no lower than 0.06: RRIRIRPPRLPRPRPRPPAEPRP
Out: Criterion met

In: Dear colleague, could you confirm whether RRIRMRPPRLPRPRPRPVSQPRP has shrunken log2 fold change at or above 0.06?
Out: Criterion met

In: For this sequence, is measured shrunken log2 fold change 0.06 or higher? RRIRWRPPRLPRPRPRPCYNPRP
Out: Criterion not met

In: In plain terms: is recorded shrunken log2 fold change at least 0.06 for RRIRFRPPRLPRPRPRPAFCPRP ?
Out: Criterion not met

In: Hi, just wondering whether RRIRHRPPRLPRPRPRPRPWPRP shows shrunken log2 fold change of 0.06 or higher.
Out: Criterion met

In: Test whether the sequence RRIRPRPPRLPRPRPRPVPMPRP records shrunken log2 fold change of 0.06 or higher.
Out: Criterion met

# credit: the supplement of paper PMC9112550
